TESTED_SYSTEM: T1, hu-IL-36β (human IL-36β, N-terminally truncated active form R5-E157) (human)
T1 chain: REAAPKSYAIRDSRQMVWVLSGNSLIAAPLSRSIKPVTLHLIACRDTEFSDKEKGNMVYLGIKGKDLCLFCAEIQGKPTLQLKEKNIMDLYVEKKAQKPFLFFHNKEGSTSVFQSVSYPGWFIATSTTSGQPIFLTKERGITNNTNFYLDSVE
METHOD_SUMMARY: cell-based or functional assay
Field: IC50, IL-36-stimulated IL-8 secretion by HaCat cells. Provide a value for each of the binders that follow.
State the answer as a number, implicitly in nM.

Task: Supply recorded IC50, IL-36-stimulated IL-8 secretion by HaCat cells for mAb6_2.1 Fab (Fab, V domains shown, Purified Fab (Biacore, HaCat assay)) VH: ELQLQESGPGLVKPSETLSLTCTVSGGSITSTNYYWGWIRQPPGKGLEWIGNIDYTGSTYYNASLKSRVTISVDTSKNQFSLKLSSVTAADTAVYYCATGKYYETYLGFDVWGQGTLVTVSS VL: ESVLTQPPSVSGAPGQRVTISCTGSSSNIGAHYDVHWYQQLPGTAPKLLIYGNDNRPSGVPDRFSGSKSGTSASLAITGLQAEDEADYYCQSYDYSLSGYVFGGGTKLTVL here.
Result: 1.64

Task: Supply recorded IC50, IL-36-stimulated IL-8 secretion by HaCat cells for mAb6_2 Fab (Fab, V domains shown) VH: ELQLQESGPGLVKPSETLSLTCTVSGGSITSSNYYWGWIRQPPGKGLEWIGSIDYTGSTYYNPSLKSRVTISVDTSKNQFSLKLSSVTAADTAVYYCARGKYYETYLGFDVWGQGTLVTVSS VL: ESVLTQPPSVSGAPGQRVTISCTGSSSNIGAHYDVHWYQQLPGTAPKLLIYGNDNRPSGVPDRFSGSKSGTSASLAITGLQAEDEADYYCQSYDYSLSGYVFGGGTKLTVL here.
Result: 3.19

Task: Supply recorded IC50, IL-36-stimulated IL-8 secretion by HaCat cells for mAb6_2.2 Fab (Fab, V domains shown, Purified Fab (Biacore, HaCat assay)) VH: ELQLQESGPGLVKPSETLSLTCTVSGGSITSSNAYWGWIRQPPGKGLEWIGSIDYTGSTAYNPSLKSRVTISVDTSKNQFSLKLSSVTAADTAVYYCAHGKYYETYLGFDVWGQGTLVTVSS VL: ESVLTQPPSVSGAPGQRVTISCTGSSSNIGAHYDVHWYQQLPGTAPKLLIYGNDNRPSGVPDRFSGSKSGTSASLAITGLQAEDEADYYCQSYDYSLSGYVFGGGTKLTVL here.
Result: 2.22
